assay: reversed-phase LC retention time (C18, 15 min MeOH gradient); higher = more hydrophobic / later elution; settings: ionization mode: ESI-; ion species: [M-H]-
Values of reversed-phase LC retention time greater than or equal to 10 min map to T; values below map to F.

>  <COMPOUND>
O=[N+]([O-])/N=C1\NCCN1Cc1ccc(Cl)nc1

>  <GROUP_LABEL>
F

$$$$
>  <COMPOUND>
O=C(c1ccccc1)c1ccc(O)cc1O [2,4-Dihydroxybenzophenone]

>  <GROUP_LABEL>
T

$$$$
>  <COMPOUND>
Oc1ccnc2ccccc12 [4-Hydroxyquinoline]

>  <GROUP_LABEL>
F

$$$$
>  <COMPOUND>
C/N=C(/NCC1CCOC1)N[N+](=O)[O-] (stereo unspecified)

>  <GROUP_LABEL>
F

$$$$
>  <COMPOUND>
C[C@]12C=CC(=O)C=C1CC[C@@H]1[C@@H]2C(=O)C[C@@]2(C)[C@H]1CC[C@]2(O)C(=O)CO

>  <GROUP_LABEL>
T

$$$$
>  <COMPOUND>
c1ccc2c(c1)[nH]c1cnccc12

>  <GROUP_LABEL>
T

$$$$
>  <COMPOUND>
CN/C(=N\[N+](=O)[O-])NCc1cnc(Cl)s1

>  <GROUP_LABEL>
F

$$$$
>  <COMPOUND>
CN(C)C(=O)Nc1ccc(Cl)c(Cl)c1

>  <GROUP_LABEL>
T

$$$$
>  <COMPOUND>
CC(C)(C)c1cc(-n2nc3ccccc3n2)c(O)c(C(C)(C)C)c1

>  <GROUP_LABEL>
T

$$$$
>  <COMPOUND>
O=C(O)C(F)(F)C(F)(F)C(F)(F)C(F)(F)C(F)(F)C(F)(F)C(F)(F)C(F)(F)F

>  <GROUP_LABEL>
T

$$$$
>  <COMPOUND>
O=C(O)C(F)(OC(F)(F)C(F)(F)C(F)(F)F)C(F)(F)F (stereo unspecified)

>  <GROUP_LABEL>
T

$$$$
>  <COMPOUND>
CCC(C)(c1ccc(O)cc1)c1ccc(O)cc1

>  <GROUP_LABEL>
T

$$$$
>  <COMPOUND>
N#Cc1cc(Cl)c(O)c(Cl)c1

>  <GROUP_LABEL>
F

$$$$
>  <COMPOUND>
CCOc1nc2cccc(C(=O)O)c2n1Cc1ccc(-c2ccccc2-c2nnn[nH]2)cc1

>  <GROUP_LABEL>
F

$$$$
>  <COMPOUND>
COC(=O)c1cc(C(=O)OC)cc(S(=O)(=O)O)c1 [Dimethyl-5-sulfoisophthalate]

>  <GROUP_LABEL>
F

$$$$
>  <COMPOUND>
CC1CCc2cc(F)cc3c(=O)c(C(=O)O)cn1c23 (stereo unspecified)

>  <GROUP_LABEL>
F

$$$$
>  <COMPOUND>
N#Cc1c[nH]cc1-c1cccc2c1OC(F)(F)O2

>  <GROUP_LABEL>
T

$$$$
>  <COMPOUND>
Nc1c(Cl)c(F)nc(OCC(=O)O)c1Cl

>  <GROUP_LABEL>
F

$$$$
>  <COMPOUND>
CCCCCCS(=O)(=O)O

>  <GROUP_LABEL>
F

$$$$
>  <COMPOUND>
O=c1cc(-c2ccccc2)oc2cc(O)cc(O)c12

>  <GROUP_LABEL>
T

$$$$
>  <COMPOUND>
Cc1cnc2ccc3c(nc(N)n3C)c2n1 [2-Amino-3,8-dimethylimidazo-[4,5-f]quinoxaline (MeIQx)]

>  <GROUP_LABEL>
F

$$$$
>  <COMPOUND>
CCCCCCCCCCC[C@@H](C[C@@H]1OC(=O)[C@H]1CCCCCC)OC(=O)[C@H](CC(C)C)NC=O

>  <GROUP_LABEL>
T

$$$$
>  <COMPOUND>
CC/C(=C(/CC)c1ccc(O)cc1)c1ccc(O)cc1

>  <GROUP_LABEL>
T

$$$$
>  <COMPOUND>
O=C1NS(=O)(=O)c2ccccc21

>  <GROUP_LABEL>
F

$$$$

* * *

test: collision cross section (TIMS, N2 drift gas) of the primary ion; higher = larger gas-phase ion size; conditions: ionization mode: ESI-; ion species: [M-H]-
Values of collision cross section greater than or equal to 200 Å² map to 1 (yes); values below map to 0 (no).

>  <COMPOUND>
Oc1ccc(C(=C(Cl)Cl)c2ccc(O)cc2)cc1

>  <GROUP_LABEL>
0 (no)

$$$$
>  <COMPOUND>
CCC(=O)O[C@]1(C(=O)CCl)[C@@H](C)C[C@H]2[C@@H]3CCC4=CC(=O)C=C[C@]4(C)[C@@]3(F)[C@@H](O)C[C@@]21C [Clobetasol propionate]

>  <GROUP_LABEL>
1 (yes)

$$$$
>  <COMPOUND>
O=C(O)C(F)(F)C(F)(F)C(F)(F)C(F)(F)C(F)(F)C(F)(F)C(F)(F)C(F)(F)C(F)(F)C(F)(F)C(F)(F)C(F)(F)C(F)(F)F

>  <GROUP_LABEL>
1 (yes)

$$$$
>  <COMPOUND>
O=S(=O)(O)C(F)(F)F

>  <GROUP_LABEL>
0 (no)

$$$$
>  <COMPOUND>
O=c1oc2cc(O)ccc2c2oc3cc(O)ccc3c12

>  <GROUP_LABEL>
0 (no)

$$$$
>  <COMPOUND>
O=S(=O)(O)C(F)(F)C(F)(F)C(F)(F)C(F)(F)C(F)(F)C(F)(F)C(F)(F)F

>  <GROUP_LABEL>
0 (no)

$$$$
>  <COMPOUND>
COc1ccc(Cl)cc1C(=O)NCCc1ccc(S(=O)(=O)NC(=O)NC2CCCCC2)cc1 [Glibenclamide]

>  <GROUP_LABEL>
1 (yes)

$$$$
>  <COMPOUND>
O=C1c2c(O)cc(O)cc2O[C@H](c2ccc(O)c(O)c2)[C@H]1O

>  <GROUP_LABEL>
0 (no)

$$$$
>  <COMPOUND>
Nc1ccc(/C=C/c2ccc(N)cc2S(=O)(=O)O)c(S(=O)(=O)O)c1

>  <GROUP_LABEL>
0 (no)

$$$$
>  <COMPOUND>
O=P(O)(Oc1ccccc1)Oc1ccccc1 [Diphenylphosphate]

>  <GROUP_LABEL>
0 (no)

$$$$
>  <COMPOUND>
CCC(=O)Nc1ccc(Cl)c(Cl)c1

>  <GROUP_LABEL>
0 (no)

$$$$
>  <COMPOUND>
C/N=C(/NCC1CCOC1)N[N+](=O)[O-] (centres undefined)

>  <GROUP_LABEL>
0 (no)

$$$$
>  <COMPOUND>
Nc1cccc2cc(S(=O)(=O)O)ccc12

>  <GROUP_LABEL>
0 (no)

$$$$
>  <COMPOUND>
O=C(O)CCCCCCCC(=O)O

>  <GROUP_LABEL>
0 (no)

$$$$

* * *

assay: collision cross section (TIMS, N2 drift gas) of the primary ion; higher = larger gas-phase ion size; details: ionization mode: ESI-; ion species: [M-H]-
REPORTED_ENDPOINT: collision cross section (Å²)

>  <MOLECULE>
NC(=O)c1c(Cl)c(Cl)cc(C(=O)O)c1Cl

>  <UNIT>
Å²

>  <REPORTED_MEASUREMENT>
155.56

$$$$
>  <MOLECULE>
O=S(=O)(O)NC1CCCCC1 [Cyclamate]

>  <UNIT>
Å²

>  <REPORTED_MEASUREMENT>
138.05

$$$$
>  <MOLECULE>
CC[C@H](C)[C@H]1O[C@]2(C=C[C@@H]1C)C[C@@H]1C[C@@H](C/C=C(\C)[C@@H](O[C@H]3C[C@H](OC)[C@@H](O[C@H]4C[C@H](OC)[C@@H](NC)[C@H](C)O4)[C@H](C)O3)[C@@H](C)/C=C/C=C3\CO[C@@H]4[C@H](O)C(C)=C[C@@H](C(=O)O1)[C@]34O)O2

>  <UNIT>
Å²

>  <REPORTED_MEASUREMENT>
296.31

$$$$
>  <MOLECULE>
CCCCOP(=O)(O)OCCCC [Di-n-butyl phosphate]

>  <UNIT>
Å²

>  <REPORTED_MEASUREMENT>
151.01

$$$$
>  <MOLECULE>
C[C@H](CCC(=O)O)[C@H]1CC[C@H]2[C@@H]3CC[C@@H]4C[C@H](O)CC[C@]4(C)[C@H]3C[C@H](O)[C@]12C

>  <UNIT>
Å²

>  <REPORTED_MEASUREMENT>
203

$$$$
>  <MOLECULE>
COCC(C)N(C(=O)CS(=O)(=O)O)c1c(C)csc1C (stereo unspecified)

>  <UNIT>
Å²

>  <REPORTED_MEASUREMENT>
168.76

$$$$
>  <MOLECULE>
O=S(=O)(O)c1ccc2[nH]c(-c3ccccc3)nc2c1

>  <UNIT>
Å²

>  <REPORTED_MEASUREMENT>
167.47

$$$$
>  <MOLECULE>
CCCOC(=O)c1ccc(O)cc1

>  <UNIT>
Å²

>  <REPORTED_MEASUREMENT>
140.81

$$$$
>  <MOLECULE>
O=S(=O)(O)c1cccc2c(O)cccc12 [5-Hydroxy-1-naphthalenesulfonic acid]

>  <UNIT>
Å²

>  <REPORTED_MEASUREMENT>
143.15

$$$$
>  <MOLECULE>
CNC1=C(c2cccc(C(F)(F)F)c2)C(=O)C(c2ccccc2)O1 (stereo unspecified)

>  <UNIT>
Å²

>  <REPORTED_MEASUREMENT>
175.08

$$$$
>  <MOLECULE>
Cc1cc(C)nc(NS(=O)(=O)c2ccc(N)cc2)n1

>  <UNIT>
Å²

>  <REPORTED_MEASUREMENT>
165.06

$$$$
>  <MOLECULE>
CC(=O)N(CC(O)CO)c1c(I)c(C(=O)NCC(O)CO)c(I)c(C(=O)NCC(O)CO)c1I (stereo unspecified) [Iohexol]

>  <UNIT>
Å²

>  <REPORTED_MEASUREMENT>
220.12

$$$$
>  <MOLECULE>
Cc1ccc(O)c(-n2nc3ccccc3n2)c1

>  <UNIT>
Å²

>  <REPORTED_MEASUREMENT>
154.28

$$$$
>  <MOLECULE>
CC(C)(C)CC(C)(C)c1ccc(O)cc1

>  <UNIT>
Å²

>  <REPORTED_MEASUREMENT>
156.39

$$$$
>  <MOLECULE>
COCC(C)N(C(=O)C(=O)O)c1c(C)csc1C (stereo unspecified)

>  <UNIT>
Å²

>  <REPORTED_MEASUREMENT>
161.26

$$$$
>  <MOLECULE>
CS(=O)(=O)c1ccc(C(=O)C2C(=O)CCCC2=O)c(Cl)c1

>  <UNIT>
Å²

>  <REPORTED_MEASUREMENT>
173.26

$$$$
>  <MOLECULE>
CC(=O)OCC(=O)[C@@]1(O)CC[C@H]2[C@@H]3CCC4=CC(=O)CC[C@]4(C)[C@@]3(F)[C@@H](O)C[C@@]21C [Fludrocortisone-21-acetate]

>  <UNIT>
Å²

>  <REPORTED_MEASUREMENT>
197.85

$$$$
>  <MOLECULE>
CC[C@H]1OC(=O)C[C@@H](O)[C@H](C)[C@@H](O[C@@H]2O[C@H](C)[C@@H](O[C@H]3C[C@@](C)(O)[C@@H](O)[C@H](C)O3)[C@H](N(C)C)[C@H]2O)[C@@H](CC=O)C[C@@H](C)C(=O)/C=C/C(C)=C/[C@@H]1CO[C@@H]1O[C@H](C)[C@@H](O)[C@@H](OC)[C@H]1OC

>  <UNIT>
Å²

>  <REPORTED_MEASUREMENT>
293.81

$$$$
>  <MOLECULE>
COc1cc(C2c3cc4c(cc3C(OC3OC5COC(C)OC5C(O)C3O)C3COC(=O)C23)OCO4)cc(OC)c1O (stereo unspecified) [Etoposide_1]

>  <UNIT>
Å²

>  <REPORTED_MEASUREMENT>
222.47

$$$$
>  <MOLECULE>
O=C(O)c1cc(C(=O)O)cc([N+](=O)[O-])c1

>  <UNIT>
Å²

>  <REPORTED_MEASUREMENT>
137.91

$$$$
>  <MOLECULE>
CCC(=O)OCC(=O)C1(OC(=O)CC)C(C)CC2C3CCC4=CC(=O)C=CC4(C)C3(F)C(O)CC21C (stereo unspecified) [Betamethasone dipropionate]

>  <UNIT>
Å²

>  <REPORTED_MEASUREMENT>
216.67

$$$$
